Listing of recorded pEC50 by entry.
biological target: T1, huNav1.7α + β1-β2-β3 (human, UniProt Q15858 1-1988; A5A6L6 19-218; O60939 30-215; Q2KI11 23-215); assay: binding FACS, CHO FlpIn
T1 construct: also called huNav1.7-beta1-beta2-beta3; huNav1.7-β1-β2-β3
pEC50: −log10 of the molar value.

binder: F010301893 (VHH, also called F0103464B09(L11V, E44Q, S68T, T79Y, R81Q, S82aN, N82bS, K83R, G88A, V89L)) VHH: EVQLVESGGGVVQPGGSLRLSCATTSRAFIRDVFTGWYRRVPGKQRELVARIYNGGNTNYADFAKGRFTISRDNAKKMVYLQMNSLRPEDTALYYCLFSGTINTGREYRSGDYWGQGTLVTVSS
pEC50: 8.24
--
binder: F010302366 (VHH, also called F0103464B09(L11V, T24A, T25S, R39Q, V40A, E44Q, F62S, S68T, M77T, T79Y, R81Q, S82aN, N82bS, K83R, G88A, V89L, N99S)) VHH: EVQLVESGGGVVQPGGSLRLSCAASSRAFIRDVFTGWYRQAPGKQRELVARIYNGGNTNYADSAKGRFTISRDNAKKTVYLQMNSLRPEDTALYYCLFSGTISTGREYRSGDYWGQGTLVTVSS
pEC50: 8.43
--
binder: F010302364 (VHH) VHH: EVQLVESGGGVVQPGGSLRLSCAASHRAFIRDLFTGWYRQAPGKQRELVARIYESGNTNYADSVKGRFTISRDNAKKTVYLQMNSLRPEDTALYYCLFSGTISTGREYRSGDYWGQGTLVTVSS
pEC50: 8.14
--
binder: F010302345 (VHH) VHH: EVQLVESGGGVVQPGGSLRLSCAASHRQFIRDVFTGWYRQAPGKQRELVARIYEGGNTQYADSAKGRFTISRDNAKKTVYLQMNSLRPEDTALYYCLFSGTISTGREYRSGDYWGQGTLVTVSS
pEC50: 8.31
